biological target: human ether-à-go-go-related gene (hERG) potassium channel (human, UniProt Q12809); assay: primary screen, population patch clamp on CHO cells stably expressing hERG; higher = less effect of the substance;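 also: peak tail current of the secondary pulse compared with the same well before compound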
Sequence (Q12809 whole entry, looked up): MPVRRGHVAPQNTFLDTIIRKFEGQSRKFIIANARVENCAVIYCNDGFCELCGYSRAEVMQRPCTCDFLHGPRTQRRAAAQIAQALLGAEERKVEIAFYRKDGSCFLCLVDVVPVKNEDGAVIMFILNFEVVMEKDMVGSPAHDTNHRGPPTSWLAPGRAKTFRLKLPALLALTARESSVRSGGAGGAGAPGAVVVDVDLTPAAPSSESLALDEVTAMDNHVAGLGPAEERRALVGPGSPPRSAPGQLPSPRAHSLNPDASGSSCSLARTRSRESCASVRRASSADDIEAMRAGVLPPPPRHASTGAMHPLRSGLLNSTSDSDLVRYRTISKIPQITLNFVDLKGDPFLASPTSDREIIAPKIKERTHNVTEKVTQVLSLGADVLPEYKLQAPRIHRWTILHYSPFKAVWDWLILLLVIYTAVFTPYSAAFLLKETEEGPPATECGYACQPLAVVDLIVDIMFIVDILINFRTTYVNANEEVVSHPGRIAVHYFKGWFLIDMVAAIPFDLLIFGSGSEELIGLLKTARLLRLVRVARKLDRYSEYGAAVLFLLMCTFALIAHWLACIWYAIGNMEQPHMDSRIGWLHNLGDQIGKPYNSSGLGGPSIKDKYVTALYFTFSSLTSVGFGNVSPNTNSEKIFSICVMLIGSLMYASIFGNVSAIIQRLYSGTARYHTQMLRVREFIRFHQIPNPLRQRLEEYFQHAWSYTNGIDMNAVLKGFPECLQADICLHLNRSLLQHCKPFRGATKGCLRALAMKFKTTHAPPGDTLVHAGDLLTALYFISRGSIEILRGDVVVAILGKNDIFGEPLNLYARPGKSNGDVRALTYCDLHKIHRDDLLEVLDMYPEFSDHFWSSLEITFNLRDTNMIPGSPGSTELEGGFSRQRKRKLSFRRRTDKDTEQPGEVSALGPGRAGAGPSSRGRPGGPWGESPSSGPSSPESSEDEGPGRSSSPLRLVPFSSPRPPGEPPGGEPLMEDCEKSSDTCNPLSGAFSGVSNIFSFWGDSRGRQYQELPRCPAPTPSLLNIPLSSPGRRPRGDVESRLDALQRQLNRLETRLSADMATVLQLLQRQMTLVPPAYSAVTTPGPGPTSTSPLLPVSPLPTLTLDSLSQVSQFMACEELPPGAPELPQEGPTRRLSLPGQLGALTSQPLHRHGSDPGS
The campaign covered roughly 310,000 compounds. About 14,000 (4.5%) showed an effect of 50% or more. The effect is printed as a negative number. Many of the other results were omitted from the sample, so strong results are more common in it than they were.
Listed compounds paired with reported hERG current change (%, negative = inhibition) at 10uM

> print(dat)
                           smiles.structure  result
1  COc1cccc(-c2ccc3nnc(SCC(=O)N4CCOCC4)n3n2)c1  -6.27%
2  CCn1c(N2CCN(S(=O)(=O)c3ccc(Cl)cc3)CC2)nc2ccccc21  -48.4%
3  O=C1/C(=C\c2ccc([N+](=O)[O-])cc2)CCc2ccccc21   -6.6%
4        Cc1cccc(-c2nnc(NC(=O)c3cccs3)s2)c1  -21.7%

Now, please, on to the next compound.
What the record says about `CC(C)C(=O)Nc1ccc(NC(=O)CCc2ccccc2)cn1` : hERG current change (%, negative = inhibition) at 10uM is 18.4%

###

biological target: human ether-à-go-go-related gene (hERG) potassium channel (human); experiment: primary screen, population patch clamp on CHO cells stably expressing hERG; higher = less effect of the substance;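 also: peak tail current of the secondary pulse compared with the same well before compound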
Hit rate of the full screen: of about 310,000 compounds, about 14,000 (4.5%) showed an effect of 50% or more. Effects have a minus sign here. This excerpt belongs to a sample that is enriched for strong results.
Met means recorded hERG current change (%, negative = inhibition) at 10uM is -10% or above; Not met means it is below -10%.

-- ask Reported hERG current change (%, negative = inhibition) at 10uM at or above -10%? `Cc1nn(-c2ccccc2)c(C)c1C(=O)OCC(=O)N1CCN(S(=O)(=O)c2ccccc2)CC1`
-- reply Not met

-- ask I'd appreciate it if you could say whether `O=C(COc1ccccc1)Nc1nccs1` has hERG current change (%, negative = inhibition) at 10uM at least equal to -10%.
-- reply Not met

-- ask Is reported hERG current change (%, negative = inhibition) at 10uM greater than or equal to -10% here: `COc1ccccc1CNCC(=O)Nc1ccc(N2CCOCC2)cc1.O=C(O)C(=O)O`
-- reply Met

-- ask Does `O=C(c1ccncc1)N(Cc1ccco1)Cc1cc2ccccc2[nH]c1=O` have a reported hERG current change (%, negative = inhibition) at 10uM of at least -10%?
-- reply Not met

-- ask Kindly determine if hERG current change (%, negative = inhibition) at 10uM recorded for CC1=C(C#N)C(NC(=O)C2CC2)(C(F)(F)F)C(=O)N1 (centres unmarked) is above or exactly -10%.
-- reply Met

###

molecular target: human ether-à-go-go-related gene (hERG) potassium channel (human, UniProt Q12809); test: primary screen, population patch clamp on CHO cells stably expressing hERG; higher = less effect of the substance;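 also: peak tail current of the secondary pulse compared with the same well before compound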
Hit rate of the full screen: of about 310,000 compounds, about 14,000 (4.5%) showed an effect of 50% or more. Effects have a minus sign here. The list comes from a sample in which strong results are over-represented; it also holds close analogues and randomly drawn compounds.
metric: hERG current change (%, negative = inhibition) at 10uM (%)
// note: answer is a bare numeric in %

> print(dat)
                           smiles.structure                             tested.target  unit.info  numeric.value
1    COc1ccc(N2CCN(C(=O)CSc3ccccc3N)CC2)cc1  human ether-à-go-go-related gene (hERG) potassium channel (human, UniProt Q12809)          %           3.07
2  COc1ccc(C(=O)CCC(=O)N2CCN(c3ccccc3)CC2)cc1  human ether-à-go-go-related gene (hERG) potassium channel (human, UniProt Q12809)          %          -9.62
3  Cc1ccc(CN2CCN(C(=O)CCN3C(=O)c4ccccc4C3=O)CC2)cc1  human ether-à-go-go-related gene (hERG) potassium channel (human, UniProt Q12809)          %          -55.4
4    CCN1CCN(C(=O)CCN2C(=O)c3ccccc3C2=O)CC1  human ether-à-go-go-related gene (hERG) potassium channel (human, UniProt Q12809)          %          -1.77
5                Cc1ccccc1OCC(=O)N1CCCCCCC1  human ether-à-go-go-related gene (hERG) potassium channel (human, UniProt Q12809)          %           1.22
6  COc1ccc(N2CCN(C(=O)CSc3ccc([N+](=O)[O-])cc3)CC2)cc1  human ether-à-go-go-related gene (hERG) potassium channel (human, UniProt Q12809)          %          -68.4
7       O=C(CCN1C(=O)c2ccccc2C1=O)N1CCCCCC1  human ether-à-go-go-related gene (hERG) potassium channel (human, UniProt Q12809)          %          0.431
8  COc1ccc(C(=O)NC(=S)N2CCN(c3ccc([N+](=O)[O-])cc3)CC2)cc1  human ether-à-go-go-related gene (hERG) potassium channel (human, UniProt Q12809)          %          -49.2
9  CSc1ccccc1OCc1cc(C(=O)NCCn2nc(C)cc2C)no1  human ether-à-go-go-related gene (hERG) potassium channel (human, UniProt Q12809)          %       -0.00922

Consider now this further compound.
Tested on human ether-à-go-go-related gene (hERG) potassium channel (human, UniProt Q12809): `CC1(C)Cc2nc3scc(NC(=O)c4ccccc4)c3cc2CO1` . Observed hERG current change (%, negative = inhibition) at 10uM: -0.679
